Experiment: self-splicing fitness, log relative to wild type (ln ratio); higher = more splicing; Tetrahymena group I intron in knt gene, E. coli kanamycin selection, DiMSum; sequences stand for … in CUCUCU…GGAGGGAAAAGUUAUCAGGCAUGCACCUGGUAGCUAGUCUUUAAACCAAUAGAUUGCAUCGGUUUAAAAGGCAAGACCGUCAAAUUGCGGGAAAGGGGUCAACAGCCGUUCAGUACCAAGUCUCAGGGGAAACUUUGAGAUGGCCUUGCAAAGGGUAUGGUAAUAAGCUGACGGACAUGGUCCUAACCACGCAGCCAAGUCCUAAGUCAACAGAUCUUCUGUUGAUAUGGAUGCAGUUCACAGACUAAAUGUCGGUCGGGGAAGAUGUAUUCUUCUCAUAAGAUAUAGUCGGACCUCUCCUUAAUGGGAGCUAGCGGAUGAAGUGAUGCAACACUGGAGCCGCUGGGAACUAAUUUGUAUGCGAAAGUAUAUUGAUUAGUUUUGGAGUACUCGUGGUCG;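 note: selection with 25 µg/mL kanamycin versus none on LB agar overnight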
Conditions: 37 °C
Label rule, in plain words: self-splicing fitness (ln) of -2 and up is 1, under -2 is 0.

IN: Hi team, for "CGCAAGCAAUAUUACGUACA" , is the recorded self-splicing fitness (ln) at or above -2?
OUT: 1

More entries:
IN: Say whether "CGUUAGCAAUAUUACGAAAC" shows self-splicing fitness (ln) of -2 or more.
OUT: 1

IN: Check the entry "CCGAAGCAAUAUUACGUUUC" : does self-splicing fitness (ln) equal or exceed -2?
OUT: 0

IN: Reported self-splicing fitness (ln) at or above -2? "CCAGAGCAAUAUUACGAGCC"
OUT: 1

IN: Entry "GCGUAGCAAUAUUACGUUGA" : is its self-splicing fitness (ln) no less than -2?
OUT: 1

IN: Please indicate if the recorded self-splicing fitness (ln) for "CUCUAGCAAUAUUACGUUAG" meets or exceeds -2.
OUT: 0

IN: In plain terms: is recorded self-splicing fitness (ln) at least -2 for "UUCUAGCAAUAUUACGUGAU" ?
OUT: 1

IN: Reported self-splicing fitness (ln) at or above -2? "UAAAAGCAAUAUUACGCGGU"
OUT: 0

IN: Would you say "GCCGAGCAAUAUUACGAUGG" shows self-splicing fitness (ln) at minimum -2?
OUT: 0

IN: Has "ACACAGCAAUAUUACGUACC" a recorded self-splicing fitness (ln) greater than or equal to -2?
OUT: 1

IN: Confirm if self-splicing fitness (ln) reported for the sequence "CGGGAGCAAUAUUACGAAAU" is -2 or above.
OUT: 1

IN: Answer whether self-splicing fitness (ln) of "AUUUAGCAAUAUUACGUUAA" is greater than or equal to -2.
OUT: 0

###

Assay: self-splicing fitness, log relative to wild type (ln ratio); higher = more splicing; Tetrahymena group I intron in knt gene, E. coli kanamycin selection, DiMSum; sequences stand for … in CUCUCU…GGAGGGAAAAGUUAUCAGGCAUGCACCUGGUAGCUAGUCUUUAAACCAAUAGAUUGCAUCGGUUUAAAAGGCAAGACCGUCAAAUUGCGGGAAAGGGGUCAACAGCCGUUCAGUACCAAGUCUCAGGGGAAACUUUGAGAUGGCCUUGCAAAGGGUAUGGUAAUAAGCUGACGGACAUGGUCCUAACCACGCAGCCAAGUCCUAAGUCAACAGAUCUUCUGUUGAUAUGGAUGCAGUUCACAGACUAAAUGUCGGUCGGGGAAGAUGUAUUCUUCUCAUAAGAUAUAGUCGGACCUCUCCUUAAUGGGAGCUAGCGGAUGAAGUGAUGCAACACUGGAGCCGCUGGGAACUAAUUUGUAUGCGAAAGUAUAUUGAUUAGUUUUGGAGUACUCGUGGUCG
Conditions: 37 °C
value type: self-splicing fitness (ln)
Give only the figure.

get_value(item= "CCAUAGCAAUAUUACGCAGA" , readout=self-splicing fitness (ln)) returns -2.16

Per the records, this sequence ( "UUAAAGCAAUAUUACGACCC" ) has self-splicing fitness (ln) equal to -0.355

The reported self-splicing fitness (ln) of the sequence "GUAUAGCAAUAUUACGAGUU" was -1.17

Next:
Given item "UACCAGCAAUAUUACGCAUC" , the value recorded as its self-splicing fitness (ln) is -1.13

// sample "UUGUAGCAAUAUUACGUUUG" , its self-splicing fitness (ln) was -1.87

// field: self-splicing fitness (ln); key: "UGGUAGCAAUAUUACGCUGU" ; value = -2.12

Lab book: self-splicing fitness (ln) of "GUCUAGCAAUAUUACGACAG" noted as -1.71

Item: "UGUAAGCAAUAUUACGAGCU" | self-splicing fitness (ln): 0.293
